# measured-on: Gal(b1-3)GlcNAc(b1-3)Gal(b1-4)GlcNAc
# test-method-notes: glycan array binding signal (z-score within array); higher = stronger binding
# measurement-conditions: glycan notation: IUPAC condensed, linker removed
The full list was thinned out, with the strongest signals kept by preference.
measured-parameter: glycan array binding signal (z-score)

[[record]]
binder = "Epa3to1 (Candida glabrata) (protein) MGSSHHHHHHSSGLVPRGSHMKRELSSQNPFGYPIGCSPQDVAIIPGLTMELYSYPIVSGTPPNCYDASYVDPEYPRTGYLKRKMVGKSTGVTGNLNYKYSVEKACMVKYGNLPAGYNYNEPLTVSNFTMILYGYFKAQTTGLHTFFVNADDLLYINFGAGNAFDCCKREDSKTKLGEYVAYDIWHVDSSKNKVSLFLEKDLYYPIRMFFNNREYDSSLDLSFSVNGATDQISDFSGYLYSVPDQPDTCPAHIGYDTTCR"
measured_parameter = "glycan array binding signal (z-score)"
reported_value = -0.502

